src = ChEMBL document CHEMBL1201862

System: MCF7
Experiment Summary: NCI tumour cell line growth inhibition, 48 h
Calls of active or inactive are those of the source. No stated cut-off is given here; in the data, active = GI50 up to about 1.1 µM and inactive = higher.
Your answer must be one of the following: y for active, n for inactive

Past entries and their recorded results:
CCOC(=O)C(C(N)=O)C1=Nc2cc([N+](=O)[O-])ccc2N/C1=C\C(=O)c1ccc(C)cc1 (stereo not given) : n
CSc1nc(NC2CCCC2)c2cc[nH]c2n1 : n

// return assay outcome for "[O-][n+]1ccc(NO)c2ccccc21"
y

What call does the record list for "C=C(C)[C@@]1(O)O[C@H]2C[C@@]3(C)OC(=CC3=O)/C(C)=C\[C@@H]3OC(=O)[C@@]1(C)[C@H]32" ?
n

Which result was noted for this molecule in the test: "CCCCCCOc1ccc(NC2=C(Cl)C(=O)c3c(O)ccc(O)c3C2=O)cc1"
y
